Target: Protein translocase subunit SecA (Escherichia coli (strain K12))
Test: Assay to Identify E. coli SecA ATPase Inhibitors
Format: functional
Set-up: scale not given: direction of the effect not stated beside the values
Conditions: 30 µM
Results with a measured potency or affinity are listed apart.
Experimental endpoint: Percent Effect (%)
Provide only the numeric value, understood in %.

Sample CO[C@H]1CCN(c2ccc(C)nn2)[C@H]1Cc1cnn(C)c1 ; Percent Effect observed: -5.98

Sample COc1cccc(CN(C)C(=O)CSc2ccc3c(c2)OCCO3)c1 ; Percent Effect observed: -7.29

Sample COCC(=O)NCc1cc(=O)n2c(n1)CN(CC1CCOC1)CCC2 (stereo not given) ; Percent Effect observed: 0.158
